assay: Inhibition of Escherichia coli GroEL expressed in NEB-5-alpha Escherichia coli cells/Escherichia coli GroES expressed in Escherichia coli BL21(DE3) cells assessed as inhibition of GroEL/ES-mediated dRho refolding by reporter analysis
The entries below come with measured pIC50 values attached.
The scale used: pIC50 is minus the common logarithm of the concentration in molar units.

{"CHEMICAL_SMILES": "O=C(/C=C/c1cccc([N+](=O)[O-])c1)c1ccc(NC(=O)c2ccco2)cc1", "pIC50": 5.66}
{"CHEMICAL_SMILES": "O=C(/C=C/c1ccc([N+](=O)[O-])cc1)c1ccc(O)c(O)c1", "pIC50": 5.89}
{"CHEMICAL_SMILES": "Nc1ccc(C(=O)/C=C/c2ccco2)cc1", "pIC50": 4.92}

In the following, a different molecule is considered.
Ask: Which pIC50 value belongs to O=C(/C=C/c1ccco1)c1ccc(NC(=O)c2ccccc2)cc1 ?
Result: 4.43
